Tested on: UACC-62
ASSAY NOTES: NCI tumour cell line growth inhibition, 48 h
Active and inactive are the calls of the source. Cut-off read from the data, not from the text of the source: active = GI50 up to about 1.1 µM and inactive = higher.
A correct response names exactly one class from active, inactive

Reference set (3 entries):
>  <MOLECULE>
O=c1[nH]nc(-c2cccc(Br)c2)[nH]1

>  <GROUP LABEL>
inactive

$$$$
>  <MOLECULE>
Cc1cc([N+](=O)[O-])ccc1Sc1c2ccccc2nc2ccccc12

>  <GROUP LABEL>
inactive

$$$$
>  <MOLECULE>
COC1(OC)C[C@H](C)[C@@]23O[C@]24c2cc(O)c5c(c2N[C@H]3C#C/C=C\C#C[C@]14O)C(=O)c1ccccc1C5=O

>  <GROUP LABEL>
active

$$$$

-- ask Please share the test call associated with `O=[N+]([O-])c1ccc(/C(=N/c2ccccc2)SS/C(=N\c2ccccc2)c2ccc([N+](=O)[O-])o2)o1` .
-- reply inactive

-- ask Please share the test call associated with `N#C[C@](CO)(NC(=O)OCc1ccccc1)C(F)F` .
-- reply inactive

====

Test system: RXF 393
ASSAY NOTES: NCI tumour cell line growth inhibition, 48 h
Activity calls are given as the source filed them. Rule as the data show it: active = GI50 up to about 1.1 µM and inactive = higher.
A correct response names exactly one class from 1 (yes) for active, 0 (no) for inactive

Reference set (10 entries):
>  <MOLECULE>
O=C(O)[C@H](Cc1ccccc1)NCCN1CCC[C@H]1C(=O)O

>  <GROUP LABEL>
0 (no)

$$$$
>  <MOLECULE>
O=C(/C=C/c1ccc([N+](=O)[O-])o1)N1CCN(Cc2ccccc2)CC1

>  <GROUP LABEL>
0 (no)

$$$$
>  <MOLECULE>
O=C(O)c1ccccc1.[Ag]

>  <GROUP LABEL>
0 (no)

$$$$
>  <MOLECULE>
CCC1NC(=O)C(NC(=O)c2ncccc2O)C(C)OC(=O)C(c2ccccc2)NC(=O)C2CC(=O)CCN2C(=O)C(Cc2ccccc2)N(C)C(=O)C2CCCN2C1=O (configuration not stated)

>  <GROUP LABEL>
0 (no)

$$$$
>  <MOLECULE>
N=c1c2c(=S)n(-c3ccccc3)c(=S)n(-c3ccccc3)c2nc(SCCN2CCCC2)n1-c1ccccc1

>  <GROUP LABEL>
0 (no)

$$$$
>  <MOLECULE>
C[C@@H](CC(=O)O)OC1OC(COC(=O)C(C)(C)C)C(OC(=O)C(C)(C)C)C(OC(=O)C(C)(C)C)C1OC(=O)C(C)(C)C (some centres not stated)

>  <GROUP LABEL>
0 (no)

$$$$
>  <MOLECULE>
CCOc1cc2c(cc1OC)c[n+](C)c1c3cc(OC)c(OC)cc3ccc21

>  <GROUP LABEL>
0 (no)

$$$$
>  <MOLECULE>
c1ccc2sc(SCN(C3CCCCC3)C3CCCCC3)nc2c1

>  <GROUP LABEL>
0 (no)

$$$$
>  <MOLECULE>
COc1ccc2c(c1)-c1c(c3cc(OC)ccc3n1CCN(C)C)CC2

>  <GROUP LABEL>
0 (no)

$$$$
>  <MOLECULE>
CC(=O)Nc1cc2cc(N)ccc2oc1=O

>  <GROUP LABEL>
1 (yes)

$$$$

-- ask Please share the test call associated with CO/N=C1\CC(NC(=O)C(F)(F)F)c2ccsc21 (configuration not stated) .
-- reply 0 (no)

-- ask Please share the test call associated with `Cn1cc(NC(=O)Nc2cc(C(=O)Nc3cc(C(=O)Nc4cc(S(=O)(=O)O)c5cc(S(=O)(=O)O)cc(S(=O)(=O)O)c5c4)n(C)c3)n(C)c2)cc1C(=O)Nc1cc(C(=O)Nc2cc(S(=O)(=O)O)c3cc(S(=O)(=O)O)cc(S(=O)(=O)O)c3c2)n(C)c1` .
-- reply 0 (no)

-- ask Please share the test call associated with `Cc1cn(Cc2ccccc2CCl)c(=O)[nH]c1=O` .
-- reply 0 (no)

-- ask Please share the test call associated with `CC1=C(C)C(=O)C(C2=C(C3=CC(=O)C(C)=C(C)C3=O)C(=O)c3ccccc3C2=O)=CC1=O` .
-- reply 0 (no)

-- ask Please share the test call associated with CC(C)CCC[C@@H](C)C1CCC2[C@@H]3CCC4CC(CCC=C(c5cc(Cl)c(OC(=O)c6ccccc6)c(C(=O)O)c5)c5cc(Cl)c(OC(=O)c6ccccc6)c(C(=O)O)c5)CC[C@]4(C)C3CC[C@@]21C (some centres not stated) .
-- reply 0 (no)
